Test system: LYN (Mus musculus, UniProt P25911)
Construct: LYN immunoprecipitated from unstimulated BMMCs
Sequence (P25911 2-512): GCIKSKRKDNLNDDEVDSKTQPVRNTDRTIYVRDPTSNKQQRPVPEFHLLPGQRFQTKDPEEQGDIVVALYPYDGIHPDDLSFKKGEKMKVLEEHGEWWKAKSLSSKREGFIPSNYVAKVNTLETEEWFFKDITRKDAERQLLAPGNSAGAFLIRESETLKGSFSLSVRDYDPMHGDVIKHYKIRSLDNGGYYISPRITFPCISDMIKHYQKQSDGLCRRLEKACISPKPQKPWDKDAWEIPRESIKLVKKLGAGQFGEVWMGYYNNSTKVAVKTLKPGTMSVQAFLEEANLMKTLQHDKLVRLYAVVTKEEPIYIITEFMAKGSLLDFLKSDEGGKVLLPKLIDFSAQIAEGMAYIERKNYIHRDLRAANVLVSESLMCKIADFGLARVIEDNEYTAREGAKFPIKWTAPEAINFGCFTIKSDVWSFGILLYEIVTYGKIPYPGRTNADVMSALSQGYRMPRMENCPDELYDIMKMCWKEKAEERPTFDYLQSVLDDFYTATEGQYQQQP
Experimental details: in vitro kinase assay with immunoprecipitated LYN and GST-SH3P7 substrate

>  <Smiles str>
CC(C)(C)c1nc(-c2ccc(NC(=O)Nc3cccc(C(F)(F)F)c3)c3ccccc23)c2c(N)nccn12

>  <IC50>
~300 nM

$$$$

Hello, the source for this data is paper PMC11830387, in case you need it.
